Target: T1, recombinant human Tau monomer, 2N4R isoform (amino acids 2-441) (human, UniProt P10636-8 2-441)
T1 construct: range 2-441; N-terminal His-tag removed with TEV protease; also called monomeric Tau
T1 sequence (P10636 other isoform, or with tags, fused parts or gaps limits assumed): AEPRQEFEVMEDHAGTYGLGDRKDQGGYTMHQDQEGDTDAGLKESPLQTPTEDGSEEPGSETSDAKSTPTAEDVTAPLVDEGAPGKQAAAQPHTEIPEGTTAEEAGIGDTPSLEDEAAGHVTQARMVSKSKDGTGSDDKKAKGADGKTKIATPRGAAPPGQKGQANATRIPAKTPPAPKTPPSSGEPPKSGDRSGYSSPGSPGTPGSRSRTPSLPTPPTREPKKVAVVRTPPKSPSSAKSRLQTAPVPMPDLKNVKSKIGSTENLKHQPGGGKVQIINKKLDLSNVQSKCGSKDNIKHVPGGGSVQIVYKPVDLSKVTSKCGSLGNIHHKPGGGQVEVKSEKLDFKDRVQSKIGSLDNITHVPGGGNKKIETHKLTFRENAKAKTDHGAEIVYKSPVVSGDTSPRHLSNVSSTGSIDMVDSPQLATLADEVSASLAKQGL
Assay: SPR, captured IgG, Tau monomer analyte, 1:1 model; fit-quality column: Yes
Would you mind telling me the reported Kd of each entry?
One number for each entry, in nM.

[[record]]
binder = "hu37D3-H9.v30.1 (antibody, V domains shown) VH: EVQLVESGGGLVQPGGSLRLSCAASGLIFRSYGMSWVRQAPGKGLEWVATINSGGTYTYYPDSVKGRFTISRDNSKNTLYLQMNSLRAEDTAVYYCANSYSGAMDYWGQGTLVTVSS VL: DDVLTQTPLSLPVTPGQPASISCRSSQSIVHSGGNTYFEWYLQKPGQSPQLLIYKVSNRFSGVPDRFSGSGSGTDFTLKISRVEAEDVGVYYCFQGSLVPWTFGQGTKVEIK"
unit_descriptor = "nM"
reported_measurement = 23.5

[[record]]
binder = "hu37D3-H9.v30.3 (antibody, V domains shown) VH: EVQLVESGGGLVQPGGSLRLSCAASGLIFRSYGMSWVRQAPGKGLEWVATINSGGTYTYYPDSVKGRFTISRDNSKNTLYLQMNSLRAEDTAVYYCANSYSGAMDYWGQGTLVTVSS VL: DDVLTQTPLSLPVTPGQPASISCRSSQSIVHSVGNTYFEWYLQKPGQSPQLLIYKVSNRFSGVPDRFSGSGSGTDFTLKISRVEAEDVGVYYCFQGSLVPWTFGQGTKVEIK"
unit_descriptor = "nM"
reported_measurement = 38.1


Proceed to the following item.
Request: Param item = hu37D3.v28.A6 (antibody, V domains shown) VH: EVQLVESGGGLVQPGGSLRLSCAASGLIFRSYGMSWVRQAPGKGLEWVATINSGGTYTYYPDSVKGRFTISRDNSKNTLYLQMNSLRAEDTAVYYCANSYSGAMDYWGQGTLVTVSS VL: DDVLTQTPLSLPVTPGQPASISCRSSQSIVHSNGNTYLEWYLQKPGQSPQLLIYKVSNRFSGVPDRFSGSGSGTDFTLKISRVEAEDVGVYYCFQGSHVPWTFGQGTKVEIK ; retrieve measured Kd.
Result: 38.3
